biological target: Luciferin 4-monooxygenase (Photinus pyralis) (UniProt P08659); assay: firefly luciferase enzyme inhibitors, primary screen, artefact control for luciferase-based inhibitor screens, biochemical, luminescence, ATPLite (AID 1006); conditions: 10 min, at 10 µM, hits give high values
Sequence (P08659 whole entry, looked up): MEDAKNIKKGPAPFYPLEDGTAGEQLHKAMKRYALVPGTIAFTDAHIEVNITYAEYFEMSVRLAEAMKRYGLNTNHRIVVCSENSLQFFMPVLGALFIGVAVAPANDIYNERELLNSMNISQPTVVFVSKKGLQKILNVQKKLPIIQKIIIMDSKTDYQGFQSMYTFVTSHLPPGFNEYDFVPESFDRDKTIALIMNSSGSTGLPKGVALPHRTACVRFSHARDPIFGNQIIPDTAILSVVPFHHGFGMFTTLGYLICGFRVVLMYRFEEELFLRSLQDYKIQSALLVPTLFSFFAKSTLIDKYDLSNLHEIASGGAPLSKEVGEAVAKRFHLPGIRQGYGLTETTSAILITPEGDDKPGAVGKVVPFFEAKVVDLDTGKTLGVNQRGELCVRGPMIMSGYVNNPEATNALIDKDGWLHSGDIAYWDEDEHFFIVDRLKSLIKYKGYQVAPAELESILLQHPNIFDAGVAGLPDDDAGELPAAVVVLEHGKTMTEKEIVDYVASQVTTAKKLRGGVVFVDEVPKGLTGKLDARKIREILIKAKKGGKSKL
Hit rate of the full screen: of about 200,000 compounds, about 3,000 (1.5%) were called active. Shown is part of a subset that was picked to be rich in actives.
recorded-metric: inhibition (%)
Answers are plain numbers, in %.

Below: 5 molecules and their reported inhibition.
[
  {
    "molecule": "O=C(CCC(=O)Nc1ccccc1)N/N=C/c1ccccc1F",
    "inhibition, %": -1.2
  },
  {
    "molecule": "COCC1CCCN(Cc2nc(-c3ccc4c(c3)OCO4)no2)C1 (configuration not stated)",
    "inhibition, %": 0.8
  },
  {
    "molecule": "O=C(NCC1CCCO1)C1CCN(C2CCN(C(=O)C3CCCCC3)CC2)CC1 (configuration not stated)",
    "inhibition, %": -6.8
  },
  {
    "molecule": "Cc1cccc(OCC(=O)Nc2ccccc2F)c1",
    "inhibition, %": 6.3
  },
  {
    "molecule": "Cc1cc(Cl)ccc1NC(=S)N1CCC(C(N)=O)(N2CCCCC2)CC1",
    "inhibition, %": -2.1
  }
]

Your task in this section: give inhibition for each listed record.
1. COc1cccc(OCC(=O)Nc2ccccc2C(N)=O)c1
2. CN(C(=O)COc1ccccc1)c1nnc(-c2ccncc2)s1
3. Cc1cccc(C(=O)NNC(=O)c2cccc([N+](=O)[O-])c2)c1
4. CC(Oc1ccc(Br)cc1Br)C(=O)NC1CCCC1 (configuration not stated)
5. CN(C(=O)c1ccno1)c1nnc(-c2cccnc2)s1
6. CCOC(=O)C1=C(CC)Nc2ccccc2N=C1N
7. CN(C(=O)c1ccccn1)c1nnc(-c2ccccn2)s1

59.2
-2.1
-0.8
-6.3
0.1
-6.8
55.5

###

target: Luciferin 4-monooxygenase (Photinus pyralis) (UniProt P08659); assay: firefly luciferase enzyme inhibitors, primary screen, artefact control for luciferase-based inhibitor screens, biochemical, luminescence, ATPLite (AID 1006); conditions: 10 min, at 10 µM
About 3,000 (1.5%) of roughly 200,000 compounds were called active.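 Rule for the calls: active = inhibition above about 50% when tested at 10 µM (limit read from the data); inactive = the rest.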 What follows is part of a selection rich in actives, with near analogues and random picks from the rest.
Would you mind answering with one of these outcomes? active, inactive

Take a look at these entries with their results.
[
  {
    "compound": "CC(C)N(Cc1ccccc1)C(=O)COC(=O)c1cnccn1",
    "group-label": "inactive"
  },
  {
    "compound": "Cc1ccc(N(CC(=O)Nc2cccc(N(C)S(C)(=O)=O)c2)S(C)(=O)=O)cc1",
    "group-label": "inactive"
  },
  {
    "compound": "COc1cccc(/C=N\\NC(=O)C2=NNC(=O)C2C)c1O (stereo unspecified)",
    "group-label": "active"
  },
  {
    "compound": "O=C1OC(c2ccc(Cl)cc2)=N/C1=C\\c1cccnc1",
    "group-label": "inactive"
  },
  {
    "compound": "COc1cccc(/C=N/NC(=O)c2[nH]nc3c2CCc2ccccc2-3)c1O",
    "group-label": "inactive"
  }
]

Look up the recorded call for COc1ccc(Nc2nc(NCc3ccco3)nc(N/N=C/c3ccccc3Cl)n2)cc1 in this test. inactive

Look up the recorded call for COc1ccc(-c2csc(Nc3ccccn3)n2)cc1 in this test. inactive

Look up the recorded call for Cc1ccc(C2=C/C(=C\c3cccnc3)C(=O)O2)cc1 in this test. active

Look up the recorded call for Cc1ccccc1C1=N/C(=C/c2cccnc2)C(=O)O1 in this test. inactive

Look up the recorded call for C/C(=N\N=C(N)N)c1ccc(Cl)cc1 in this test. inactive

Look up the recorded call for CC(C)N(Cc1nc(-c2ccc3c(c2)OCO3)no1)CC1CCC(=O)N1 (stereo unspecified) in this test. inactive

###

Provide the recorded inhibition for the entries that follow.
target: Luciferin 4-monooxygenase (Photinus pyralis) (UniProt P08659); experiment: firefly luciferase enzyme inhibitors, primary screen, artefact control for luciferase-based inhibitor screens, biochemical, luminescence, ATPLite (AID 1006); conditions: 10 min, at 10 µM, hits give high values
In all, about 200,000 compounds went through this assay and about 3,000 (1.5%) were called active. The sample as a whole holds a higher share of actives than the screen did.
Numbers only, in %.

Below: 4 compounds and their reported inhibition.
[
  {
    "line-notation": "CCOc1ccc(C(=O)Nc2cccc(SC)c2)cc1",
    "inhibition (%)": 62.1
  },
  {
    "line-notation": "CCOC(=O)CSc1nnc(-c2ccc([N+](=O)[O-])cc2)o1",
    "inhibition (%)": 3
  },
  {
    "line-notation": "Cc1cc(C)n2nc(C(=O)N(C)C(c3ccccc3)c3ccccc3)nc2n1",
    "inhibition (%)": -7
  },
  {
    "line-notation": "COc1cc(CNC2CCCCC2)c(Br)cc1OC1CCCC1",
    "inhibition (%)": -3.7
  }
]

Your task in this section: give inhibition for each listed record.
1. Cn1c(-c2ccccc2)c[n+]2c1CCCCC2
2. Cc1ccc(NC(=O)Nc2ccc3oc(C)nc3c2)cc1

1. -4.6
2. 70.8

###

molecular target: Luciferin 4-monooxygenase (Photinus pyralis); assay: firefly luciferase enzyme inhibitors, primary screen, artefact control for luciferase-based inhibitor screens, biochemical, luminescence, ATPLite (AID 1006); conditions: 10 min, at 10 µM
About 3,000 (1.5%) of roughly 200,000 compounds were called active.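 The calls were made as follows: active = inhibition above about 50% when tested at 10 µM (limit read from the data); inactive = the rest.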 This excerpt belongs to a sample that is enriched for actives.
Would you mind answering with one of these outcomes? 1 (active), 0 (inactive)

[
  {
    "compound": "S=c1[nH]nc(/C=C/c2ccccc2)o1",
    "group-label": 0
  },
  {
    "compound": "CSc1ccccc1-c1nnc(-c2ccc(Cl)cc2)o1",
    "group-label": 1
  },
  {
    "compound": "O=C(O)c1ccc2c(c1)C(=O)N(c1ccc(/C=C/C(=O)c3ccccc3)cc1)C2=O",
    "group-label": 0
  },
  {
    "compound": "Cc1cc(C(=O)Cn2cnc3cc([N+](=O)[O-])ccc3c2=O)c(C)n1CC1CCCO1 (stereo unspecified)",
    "group-label": 0
  },
  {
    "compound": "N/C(=N\\OC(=O)c1cc(-c2ccccc2)nc2ccccc12)c1ccncc1",
    "group-label": 0
  },
  {
    "compound": "O=C(N/N=C/c1ccc(OCC2COCCO2)cc1)c1ccc(Br)cc1 (stereo unspecified)",
    "group-label": 0
  },
  {
    "compound": "Cc1cccc(/C(N)=N/OC(=O)c2ccccc2Cl)c1",
    "group-label": 1
  },
  {
    "compound": "COc1ccccc1C(=O)Nn1c(-c2cccs2)nc2ccccc2c1=O",
    "group-label": 0
  },
  {
    "compound": "Cc1cccc(C(=O)c2cccc(C)c2)c1",
    "group-label": 0
  },
  {
    "compound": "c1csc(-c2nnc(COc3ccc4c(c3)OCO4)o2)c1",
    "group-label": 0
  }
]

Look up the recorded call for COc1cc(OC)c(C2=NOC(C(=O)Nc3c(C)n(C)n(-c4ccccc4)c3=O)C2)cc1Cl (stereo unspecified) in this test. 0

###

biological target: Luciferin 4-monooxygenase (Photinus pyralis) (UniProt P08659); assay: firefly luciferase enzyme inhibitors, primary screen, artefact control for luciferase-based inhibitor screens, biochemical, luminescence, ATPLite (AID 1006); conditions: 10 min, at 10 µM, hits give high values
Hit rate of the full screen: of about 200,000 compounds, about 3,000 (1.5%) were called active. This is one part of a sample in which actives are shown more often than they occur.
Provide the recorded inhibition for the entries that follow.
Give bare numbers, in %.

Your task in this section: give inhibition for each listed record.
1. Cc1c(C(=O)Nc2ccccc2)sc2nc3n(c(=O)c12)CCCCC3
2. Cn1c(=O)n(Cc2ccco2)c(=N)c2c3c(sc21)CCCC3
3. O=C(CCN1C(=O)C2C3C=CC(C3)C2C1=O)Oc1ccc2ccccc2c1 (stereo not given)
4. CC(C)(C)NC(=O)COC(=O)c1cc(Cl)ccc1[N+](=O)[O-]
5. CCS(=O)(=O)c1ccc(C(=O)NC)c(Cl)c1Cl
6. Cn1c(=NC(=O)c2ccco2)sc2cccc(F)c21
7. CCOc1ccc(C(=O)Nc2nccs2)cc1[N+](=O)[O-]

-3.9
-0.5
-3.9
1.8
-3.5
59.7
-1.5

Your task in this section: give inhibition for each listed record.
1. O=C(O)CC/C(=N\NC(=O)c1ccc(F)cc1)c1ccc(Br)cc1
2. O=C(CN1CCN(S(=O)(=O)/C=C/c2ccccc2)CC1)Nc1ccc(N2CCOCC2)cc1
3. COc1ccccc1C(=O)Oc1ccc(N2C(=O)CCC2=O)cc1
4. CN(C)/N=C/c1cn(-c2ccccc2)nc1-c1cccnc1
5. CCN(c1ccccc1)S(=O)(=O)c1ccc2[nH]c(=O)[nH]c2c1
6. Nc1nnc(SCC(=O)OCc2ccc(Cl)c(Cl)c2)s1
7. C[C@@H]1CC[C@]2(O[C@@H](CCO)C[C@H](O)[C@H]2O)O1

1: -2.4; 2: -7.8; 3: -2.3; 4: 5.7; 5: -6; 6: -3.7; 7: -2.6

Your task in this section: give inhibition for each listed record.
1. CS(=O)(=O)Nc1cccc(-c2cn3ccccc3n2)c1
2. COc1ccc(NC(=O)CN2C(=O)CSC2=O)cc1
3. COc1cc(CN2CCNC(=O)C2CC(=O)NCCc2ncccc2C)cc(OC)c1 (stereo not given)
4. Cc1ccc(Cc2nc(-c3cccc(C)c3)no2)cc1

1: 16.8; 2: 1.6; 3: -1.3; 4: 2.3
